Catalogue of growth values
Test system: SK-MEL-2 melanoma
Experiment: NCI-60 one-dose screen, 48 h (100 = growth as untreated, 0 = no growth, -100 = all killed)
Settings: 10 µM
Protocol: Growth inhibition of the SK-MEL-2 human tumor cell line is measured as a screen for anti-cancer activity. Cells are grown in 96 well plates and exposed to the test compound for 48 hours. Compounds are tested at a single concentration, which is 10^-5 M for most compounds. The reported endpoint is percent growth (GI% or GIPRCNT), where numbers from 0 - 100% represent growth inhibition, and numbers from -100% - 0 represent cell death. For example, a value of 40 represents 60% growth inhibition. […]
The panel holds about 83,000 compounds, 20% with a hit somewhere; the sample as a whole holds those more often.
Experimental readout: growth (%)

>>> quantitative_result("O=C(O)CCCN1C(=O)NC2(C1=O)c1ccccc1-c1ccccc12")
83.2
>>> quantitative_result("CC(=O)[C@H]1CC[C@H]2[C@@H]3CC[C@@H]4CC=C(C=O)C[C@]4(C)[C@H]3CC[C@]12C")
99.3
>>> quantitative_result("CCCCCCCCCCCC(=O)NCCCN(C)C")
92.2
>>> quantitative_result("NS(=O)(=O)c1ccc(N2N=C(c3ccc(-c4ccccc4)cc3)CC2c2ccc(Cl)cc2)cc1 (configuration not stated)")
95.5
>>> quantitative_result("O=S(=O)(NC1c2ccccc2Oc2ccccc21)c1cc(Cl)ccc1Cl")
103
>>> quantitative_result("COc1cc(CSc2nc3ccc(C)cc3c(=O)n2Cc2ccccc2)cc(OC)c1OC")
1.08
>>> quantitative_result("Cc1ccc(NC(=O)/C=N/O)cc1C")
103
>>> quantitative_result("Fc1cc(-c2ncc(-c3cc(F)c(F)c(F)c3)c(NC3CCCCCC3)n2)cc(F)c1F")
111
>>> quantitative_result("Cc1ccc2c3c(cccc13)-c1ccccc1C2=O")
97.2
>>> quantitative_result("COc1cc(C2c3cc4c(cc3C(O)C(CO)C2CO)OCO4)cc(OC)c1OC (configuration not stated)")
32.2
>>> quantitative_result("CCn1nc(-c2ccc(C(=O)OC)cc2)nc2c(=O)n(C)c(=O)nc1-2")
96.6
>>> quantitative_result("COc1ccc(C(=O)c2sc3nc(-c4cccs4)ccc3c2N)cc1OC")
15.7
>>> quantitative_result("CCCCCc1cc[n+](CC(=O)c2ccc(Cl)cc2)cc1")
109
>>> quantitative_result("O=c1c2cccc3c(Nc4ccc(Br)cn4)ccc(c32)c2nc3ccccc3n12")
108
>>> quantitative_result("COc1ccc(C2=Cc3ccc(OC(C)=O)cc3OC2)cc1")
97.5
>>> quantitative_result("CCOC(=O)C(CCC1=NC(C)(C)CC(C)O1)C(=O)OCC (configuration not stated)")
34.1
>>> quantitative_result("COc1ccc(-c2nnc(COc3ccc(NC(=O)Nc4cccc(C(F)(F)F)c4)cc3F)o2)cc1")
36.8
>>> quantitative_result("COc1ccc2oc(=O)cc(C(c3ccc[nH]3)c3ccc[nH]3)c2c1")
5.1
>>> quantitative_result("CC(=O)CS(C)(=O)=O")
103
>>> quantitative_result("Cc1ccccc1[P+](Cc1ccccc1)(c1ccccc1)c1ccccc1")
-23.1
>>> quantitative_result("CCCCOCC(=O)NC(NP(=O)(N(C)C)N(C)C)C(Cl)(Cl)Cl (configuration not stated)")
107
>>> quantitative_result("CC(Oc1ccc(Cl)cc1)c1ccccc1 (configuration not stated)")
112
>>> quantitative_result("Cc1cc(C)c2nc(C)c(C)[n+]([O-])c2c1")
106
>>> quantitative_result("COc1cc(CSc2nc3ccc(C)cc3c(=O)n2-c2ccccc2)cc(OC)c1OC")
14.7
>>> quantitative_result("CC(C)CCN(CCCNc1c2c(nc3cc(Cl)ccc13)CCCC2)CCC(C)C")
103
>>> quantitative_result("COc1cc(Cl)cc(-c2nn(-c3cccc(NC(=O)Nc4cccc(C(F)(F)F)c4)c3)cc2-c2ccncc2)c1")
-36.7
>>> quantitative_result("Cc1cc(/C=C2\\SC(=Nc3ccccc3)N(C3CCCC3)C2=O)c(C)n1-c1ccc(Cl)cc1")
-77.3
>>> quantitative_result("Cc1ccc(-c2cc(C(=O)Nc3ccc(S(=O)(=O)N4CCCCC4)cc3)[nH]n2)c(O)c1")
80
>>> quantitative_result("Cc1nc(N)sc1Sc1nc2ccc(Cl)cc2c(=O)n1-c1ccc(Oc2ccccc2)cc1")
96.9
>>> quantitative_result("CC(=O)O[C@H]1CC[C@@]2(C)[C@@H](CC[C@@H]3[C@@H]2CC[C@]2(C)C=C(C=O)C[C@@H]32)C1")
73.7
>>> quantitative_result("Cn1c([N+](=O)[O-])cnc1C=C1C(=O)c2ccccc2C1=O")
1.67
>>> quantitative_result("CCN(CC)CCOC(=O)c1ccc(NC(=O)Nc2cccc(Cl)c2)cc1")
94.7
>>> quantitative_result("Cc1ccc(S(=O)(=O)Oc2ccccc2-c2ccccc2)cc1")
28.8
>>> quantitative_result("COc1ccc(C2C=C(c3ccc(Cl)c(Cl)c3)N=C3SC(C)=CN32)cc1OC (configuration not stated)")
79.2
>>> quantitative_result("O=C(OCc1ncc(-c2ccc(C(F)(F)F)cc2)c(NC2CCCCCC2)n1)c1c(F)c(F)c(F)c(F)c1F")
54.6
>>> quantitative_result("COc1ccc(-c2cc(/C=C/C(=O)c3ccc(N)cc3)[nH]n2)cc1OC")
80.8
>>> quantitative_result("C=C[C@]1(C)C=C2C(=O)[C@@]3(O)OC(=O)[C@@]4(CCCC(C)(C)[C@H]34)[C@@]2(O)CC1")
-66.5
>>> quantitative_result("Cc1nc2ccc(-n3c(-c4ccc(Cl)cc4)nc4ccccc4c3=O)cc2n1Cc1ccccc1")
96.5
>>> quantitative_result("COc1cc(OC)cc(N2CCN(C(=O)Nc3nc4cc(F)ccc4nc3OC)CC2)c1")
42.1
>>> quantitative_result("O=C1/C(=C/c2ccc(O)cc2O)N=C2SCCCN12")
109
>>> quantitative_result("O=C(O)c1ccc(CNc2ccc(C(=O)CCl)cc2)cc1")
96.6
>>> quantitative_result("O=c1oc2c3ccc4cnccc4c3[nH]c2c2ccccc12")
67.1
